tested on: Mycobacterium tuberculosis; assay: Antimycobacterial activity against Mycobacterium tuberculosis MC2 6230 assessed as reduction in cell viability incubated for 5 days by resazurin based method; assay type: functional; details: MC2 6230, 120 h
Measurement Kind: log10 of MIC (log10 of the value in µM)
Quick note: numbers are log10 of MIC, with µM as the unit.

1) NNC(=O)c1ccncc1 : -0.70

Can you share its log10 of MIC? I mean this molecule: C#CCNC1=C(Cl)C(=O)c2ncccc2C1=O
0.90

Can you share its log10 of MIC? I mean this molecule: Cc1ccc2c(n1)C(=O)C(Cl)=C(NCCc1ccccc1)C2=O
2.11

Can you share its log10 of MIC? I mean this molecule: CCCNC1=C(Cl)C(=O)c2cccnc2C1=O
2.11

Can you share its log10 of MIC? I mean this molecule: COc1ccc(CNC2=C(Cl)C(=O)c3cccnc3C2=O)cc1
1.20

Can you share its log10 of MIC? I mean this molecule: CCCCCCCc1ccc(NC2=C(Cl)C(=O)c3ncccc3C2=O)cc1
1.81

Can you share its log10 of MIC? I mean this molecule: CCCCCCCc1ccc(NC2=C(Cl)C(=O)c3cccnc3C2=O)cc1
1.51

---

tested on: Mycobacterium tuberculosis; experiment: Antimycobacterial activity against Mycobacterium tuberculosis MC2 6230 assessed as reduction in cell viability incubated for 5 days by resazurin based method; format: functional; conditions: MC2 6230, 120 h
The entries below come with measured MIC values attached.

1) O=C1C(Nc2ccccc2)=C(Cl)C(=O)c2ncccc21 : > 512 µM

Enter reported MIC observed with Mycobacterium tuberculosis for CCCCCCCCCCCCCCc1ccc(NC2=C(Cl)C(=O)c3cccnc3C2=O)cc1
> 512 µM

Enter reported MIC observed with Mycobacterium tuberculosis for Cc1ccc2c(n1)C(=O)C(NC(C)(C)C)=C(Cl)C2=O
> 512 µM
